Reference source: patent US20090304724A1

target-of-assay: T1, human growth hormone secretagogue receptor (human, UniProt Q92847 1-366)
T1 construct: whole, on cells; also called hGHS-R; ghrelin receptor
T1 sequence (Q92847 whole entry): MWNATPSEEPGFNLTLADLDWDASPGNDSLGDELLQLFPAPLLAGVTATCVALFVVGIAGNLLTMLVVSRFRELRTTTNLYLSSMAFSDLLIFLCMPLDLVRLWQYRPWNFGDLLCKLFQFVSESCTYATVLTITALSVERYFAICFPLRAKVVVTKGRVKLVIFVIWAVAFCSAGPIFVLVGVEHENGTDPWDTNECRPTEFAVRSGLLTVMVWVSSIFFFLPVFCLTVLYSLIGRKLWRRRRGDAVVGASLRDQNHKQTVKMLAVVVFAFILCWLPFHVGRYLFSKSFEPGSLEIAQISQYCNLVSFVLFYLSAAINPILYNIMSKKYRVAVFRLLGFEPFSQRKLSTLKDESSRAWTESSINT
procedure-text: (125I)ghrelin displacement, hGHS-R CHO-K1 membranes
property-name: pKi
Expect pKi as a plain number equal to -log10 of the molar concentration.

I have this binder here, GSXFLSPEHQRVQQRKESKKPPAKLQPR (Glu(O-hexyl) 3; C-terminal amide) [(Glu^3(O-hexyl))hGhrelin(1-28)-NH2] , and I need its recorded pKi.
9.30
